Overview of reported pEC50 across a group of compounds:
system: TNFα; experiment: cells; format: cell-based, human; details: Homo sapiens, Monocyte, LPS-stimulated human monocytes, TNFα content; read-out: EC50 TNF
Just the number, please; pEC50 means minus log10 of the concentration in mol/L.

Dear colleague, I am looking for the recorded pEC50 of the following compound: CC(C)(O)[C@H](F)CNC(=O)c1cnc(-c2ccc3cc(C#N)cnn23)cc1-c1ccc2cc(C#N)cnn12
6.09

Repeat with COC(=O)C12CCCC(Nc3cc(-c4ccc5cc(C#N)cnn45)ncc3C(=O)NC[C@@H](F)C(C)(C)O)(CC1)CC2
7.31

Repeat with COC(=O)NC(C)(CCNC(=O)c1cnc(-c2ccc3cc(C#N)cnn23)cc1NC(C)C)C(F)F (stereo not shown)
6.74

Repeat with CC(C)(O)[C@H](F)CNC(=O)c1cnc(-c2ccc3cc(C#N)cnn23)cc1N[C@H]1CC[C@H](c2cnco2)CC1
8.05
